I'd be grateful if you could share measured protein stability index for these entries.
B1: WDFY1 (parent)
chain: LLIPKEDGVITASEDRTIRVWLKR

Variants of: B1
experiment.description: protein stability index of a GFP-peptide fusion (GPS, HEK-293T) (PSI 1-6); higher = more stable;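 further: lentivirally expressed fusions sorted by FACS into six bins by GFP to DsRed ratio, PSI derived from sequencing read proportions per bin multiplied by bin number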
measurement.conditions: c terminus: a fixed tail appended
Give bare numbers.

Past entries and their recorded results:
# residue.sequence, observed.property, assay.value
records = [
    ("LLIPGEDGVITASEDRTIRVWLKR [K5G]", "protein stability index", 3.24),
    ("LLWPKEDGVITASEDRTIRVWLKR [I3W]", "protein stability index", 1.87),
    ("LLIPKEDGTITASEDRTIRVWLKR [V9T]", "protein stability index", 2.14),
    ("LMIPKEDGVITASEDRTIRVWLKR [L2M]", "protein stability index", 2.27),
    ("FLIPKEDGVITASEDRTIRVWLKR [L1F]", "protein stability index", 2.24),
]

Return reported protein stability index values for all items listed beneath this line.
1. LLIPKEDGVITASEDRTISVWLKR [R19S]
2. LLIPFEDGVITASEDRTIRVWLKR [K5F]

**Result**
1.91
1.4

Return reported protein stability index values for all items listed beneath this line.
1. LLISKEDGVITASEDRTIRVWLKR [P4S]
2. LLIPKEDGVITASEDRTICVWLKR [R19C]
3. LLIPKEDGVITASEDRTIDVWLKR [R19D]
4. LTIPKEDGVITASEDRTIRVWLKR [L2T]
5. LLIPKEGGVITASEDRTIRVWLKR [D7G]
6. LSIPKEDGVITASEDRTIRVWLKR [L2S]

**Result**
[2.54, 2.5, 2.28, 2.08, 1.77, 2.78]

Return reported protein stability index values for all items listed beneath this line.
1. LLIPKEDKVITASEDRTIRVWLKR [G8K]
2. LLIPKEDGVITASEDDTIRVWLKR [R16D]
3. LLIPKEDGGITASEDRTIRVWLKR [V9G]
4. LLIPKEDGVIEASEDRTIRVWLKR [T11E]

**Result**
1.99
2.6
2.4
2.26

Return reported protein stability index values for all items listed beneath this line.
1. ALIPKEDGVITASEDRTIRVWLKR [L1A]
2. LLIPKEDGVITAYEDRTIRVWLKR [S13Y]

**Result**
1: 2.5; 2: 2.08
